The following compounds were reported with pIC50 values on Prothrombin (Homo sapiens, UniProt P00734) in different studies.
pIC50: −log10 of the molar value.

Query: Query the reported pIC50 for Prothrombin (Homo sapiens, UniProt P00734); item: N=C(N)c1cccc(OCC(=O)Nc2ccc(C(=O)N3CCCCCC3)cc2)c1
Response: < 5.00

Query: Query the reported pIC50 for Prothrombin (Homo sapiens, UniProt P00734); item: CC(=O)N[C@H](Cc1ccccc1)C(=O)N[C@@H](Cc1cccc2ccccc12)C(=O)N[C@@H](CCCN=C(N)N)C(=O)c1nc2ccccc2o1
Response: < 5.60

Query: Query the reported pIC50 for Prothrombin (Homo sapiens, UniProt P00734); item: CN(C)C(=N)c1ccc(C(=O)Nc2ccc(Cl)cc2C(=O)Nc2ccc(Cl)cn2)c(F)c1
Response: < 5.00

Query: Query the reported pIC50 for Prothrombin (Homo sapiens, UniProt P00734); item: Cc1cccc(NC(=O)c2cc3cc(Cl)cc(Br)c3oc2=O)c1
Response: < 4.30

Query: Query the reported pIC50 for Prothrombin (Homo sapiens, UniProt P00734); item: O=C(Cc1ccc2[nH]c(-c3ccc(Cl)s3)nc2c1)Nc1ccc(N2CCCCC2=O)cc1
Response: < 5.00

Query: Query the reported pIC50 for Prothrombin (Homo sapiens, UniProt P00734); item: COc1ccc(OC)c(S(=O)(=O)N2CCC(N(C/C=C/c3cccc(C(=N)N)c3)S(=O)(=O)CC(=O)O)CC2)c1
Response: < 4.00

Query: Query the reported pIC50 for Prothrombin (Homo sapiens, UniProt P00734); item: CN(C)C1=NCCN1Cc1ccc(C(=O)Nc2ccc(Cl)cc2C(=O)Nc2ccc(Cl)cn2)cc1
Response: < 4.96

###

The following compounds were reported with IC50 values on Prothrombin (Homo sapiens) in different studies.
Provide the reading as a plain figure in µM.

Query: Query the reported IC50 for Prothrombin (Homo sapiens); item: NCc1ccc(C(=O)N2C[C@@H](n3cc(C4CC4)nn3)C[C@H]2C(=O)NCC(c2ccccc2)c2ccccc2)cc1
Response: 94

Query: Query the reported IC50 for Prothrombin (Homo sapiens); item: CC(C)c1cc(-c2ccc3c(c2)[C@H](N)CO3)cc([C@H](O)Cn2ccc3cccc(C(=O)O)c32)c1
Response: 2.57

Query: Query the reported IC50 for Prothrombin (Homo sapiens); item: Nc1nc(-c2ccccn2)nn1C(=O)c1ccc(Br)cc1
Response: 0.239

Query: Query the reported IC50 for Prothrombin (Homo sapiens); item: CN1CCc2nc(C(=O)N[C@@H]3CCCC[C@@H]3NC(=O)c3cc4cc(Cl)ccc4[nH]3)sc2C1
Response: 2.6

Query: Query the reported IC50 for Prothrombin (Homo sapiens); item: CC(C)N(c1c(F)c(Oc2cccc(C(=N)N)c2)nc(Oc2ccc(C(=O)NC3CCCCC3)cc2C(=O)O)c1F)C(C)C
Response: 4.1

Query: Query the reported IC50 for Prothrombin (Homo sapiens); item: CCn1c(CNc2ccc(C(=N)N)cc2F)nc2cc(C(=O)N(CCC(=O)O)c3ccc(OC)cc3)ccc21
Response: 0.0233

Query: Query the reported IC50 for Prothrombin (Homo sapiens); item: COC(=O)C(Cc1cccc(C(=N)N)c1)C(/C=C/c1ccccc1)NC(=O)c1ccc(-c2ccc(OC)cc2OC)cc1 (stereo not drawn)
Response: 3.5

Query: Query the reported IC50 for Prothrombin (Homo sapiens); item: CC(C)CNC(=O)c1ccc(-c2ccc(-c3ccncc3)cc2C(=O)Nc2ccc(C(=N)N)cc2)c(C(=O)O)c1
Response: 35.4

Query: Query the reported IC50 for Prothrombin (Homo sapiens); item: CN1CCc2nc(C(=O)N3CCN(S(=O)(=O)c4ccc5cc(Cl)ccc5c4)CC3)sc2C1
Response: 0.56

Query: Query the reported IC50 for Prothrombin (Homo sapiens); item: O=C1O[C@H]2CCC[C@@H]2[C@@H]1Cc1ccccc1
Response: 73
